- Tested system: B. pertussis adenylate cyclase toxin (ACT) (Bordetella pertussis, UniProt P0DKX7)
- Cond: read-out: ACT IC50; J774A.1 cells; 50% decrease in ACT-induced cAMP accumulation; mean ± SD
Catalogue of molecules with associated pIC50
Notebook: values listed as pIC50 are -log10 of the concentration (mol/L).

> print(dat)
                                   molecule  observed.measurement
1  CCCCOc1cccc(-c2nc(N)sc2CCOCP(=O)(N[C@@H](Cc2ccccc2)C(=O)OC(C)C)N[C@@H](Cc2ccccc2)C(=O)OC(C)C)c1 [9b]                  5.06

Now let's try a different one.
Known value: B. pertussis adenylate cyclase toxin (ACT) (Bordetella pertussis, UniProt P0DKX7) pIC50 of the molecule CC(C)OC(=O)[C@H](Cc1ccccc1)NP(=O)(COCCc1sc(N)nc1-c1ccc(C(=O)NCc2ccccc2)cc1)N[C@@H](Cc1ccccc1)C(=O)OC(C)C [9i] equals 4.88

These entries and their values trace back to paper PMC8741643.
